B1: SCNN1D (parent)
chain: FLGHHSFSVRPGTEATISIREDEV

- Variants of: B1
- test: protein stability index of a GFP-peptide fusion (GPS, HEK-293T) (PSI 1-6); higher = more stable;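 further: lentivirally expressed fusions sorted by FACS into six bins by GFP to DsRed ratio, PSI derived from sequencing read proportions per bin multiplied by bin number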
- assay.conditions: c terminus: a fixed tail appended
property.label: protein stability index
Returns: the value as a bare number; no unit string appended.

Name the recorded protein stability index for G3L .
2.28

Name the recorded protein stability index for R10F .
1.66

Name the recorded protein stability index for F7K .
4.54

Name the recorded protein stability index for H4G .
2.2

Name the recorded protein stability index for G12A .
2.2

Name the recorded protein stability index for L2T .
3.09

Name the recorded protein stability index for G12M .
1.85

Name the recorded protein stability index for H5T .
1.54

Name the recorded protein stability index for F1V .
4.15

Name the recorded protein stability index for I19R .
2.06

Name the recorded protein stability index for S8C .
4.76

Name the recorded protein stability index for F7A .
4.31

Name the recorded protein stability index for F7P .
4.44

Name the recorded protein stability index for T16W .
1.4

Name the recorded protein stability index for S6V .
1.88

Name the recorded protein stability index for H4P .
1.7

Name the recorded protein stability index for H5M .
2.33

Name the recorded protein stability index for I17G .
2.38

Name the recorded protein stability index for V9G .
3.44

Name the recorded protein stability index for G12H .
1.81

Name the recorded protein stability index for G12D .
2.35

Name the recorded protein stability index for E14S .
1.77
